The reported numbers originate from paper PMC5540273.

Test system: PIK3C2G
measurement conditions: concentration: 1 μM, replicates: in singlicate; n = 1;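 also: KINOMEscan kinase panel screen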
metric: %Inh (%)
Numbers only, in %.

Use the examples below as a reference point.
INSERT INTO measurements (molecule, unit_text, quantitative_result) VALUES
  ('Cc1cccc(-c2nc(-c3ccc(S(C)(=O)=O)cc3)sc2-c2ccnc(NCCc3ccccc3)c2)c1', '%', 18),
  ('Cc1cccc(-c2nc(Nc3cccc(C(N)=O)c3)c3ccccc3n2)n1', '%', 44),
  ('CSc1nn2c(=O)cc(N3CCOCC3)nc2n1Cc1cccc(C(F)(F)F)c1C', '%', 0);

Give %Inh for all molecules that follow.
1. Clc1cc(Cl)cc(Nc2ccnc(Nc3cc(Cl)cc(Cl)c3)n2)c1
2. COc1cccc(NC(=O)NC2CCN(c3ccnc(Nc4ccc(F)cc4)n3)C2)c1 (stereo not drawn)
3. CN1C(=O)C(Nc2ccc(Cl)c(C(=O)O)c2)=C(c2ccc(Cl)cc2)C1=O

Result:
1. 0
2. 0
3. 20

###

Assignment: determine reported %Inh for the given molecules.
Tested on: AMPK-alpha2
Construct: gene PRKAA2
measurement conditions: concentration: 1 μM, replicates: in singlicate; n = 1
Numbers only, in %.

INSERT INTO assay_data (molecule, metric, unit_text, quantitative_result) VALUES
  ('Cc1csc(-c2nc(Nc3ccncc3)c3ccccc3n2)n1 [GW869640]', '%Inh', '%', 11),
  ('Cc1cccc(-c2cc(Nc3ccncc3)c3ccccc3n2)n1 [GSK223675]', '%Inh', '%', 8),
  ('CN1C(=O)C(Nc2ccc(Cl)c(C(=O)O)c2)=C(c2ccc(Cl)cc2)C1=O [SB-404290]', '%Inh', '%', 0);

Please give %Inh, item by item, for the list that follows.
1. Fc1cccc(COc2nnc(-c3ccc4c(c3)CCO4)o2)c1
2. CC(C)(C)c1ccc(C(=O)Nc2cn3cc(Cl)ccc3n2)cc1
3. COc1ccccc1CNC(=O)c1cc(C(=O)c2ccccc2C)c[nH]1 [GSK364507]
4. Cc1cccc(-c2nc(Nc3ccc4[nH]ncc4c3)c3ccccc3n2)n1 [GW857175]
5. COc1ccc(CNC(=O)NC2CCN(c3ccnc(Nc4cc(OC)c(OC)c(OC)c4)n3)C2)cc1 (centres unmarked) [GSK1379748]
6. CC(=O)Nc1nc2cnc(Nc3cc(NC(=O)c4cccc(CCC#N)c4)ccc3C)nc2s1
7. Cc1c(Cn2ccn3c(=O)cc(N4CCOCC4)nc23)cccc1C(F)(F)F [GSK2289044]
8. Cc1c(O)cccc1Nc1ccnc2ccc(C(F)(F)F)cc12.Cl [GW466413]

Result:
1: 0; 2: 16; 3: 0; 4: 2; 5: 0; 6: 7; 7: 17; 8: 16

###

Test system: TNNI3K
measurement conditions: concentration: 1 μM, replicates: in singlicate; n = 1
metric: %Inh (%)
Numbers only, in %.

See these solved cases before continuing.
INSERT INTO assay_data (smi, metric, quantitative_result) VALUES
  ('Cc1c(O)cccc1Nc1ccnc2ccc(C(F)(F)F)cc12.Cl', '%Inh', 0),
  ('COc1cc2nccc(Nc3ccc(NC(=O)c4ccc(C)cc4)c(O)c3)c2cc1OC.Cl', '%Inh', 4),
  ('Cc1cccc(-c2nc(C)cc(Nc3ccncc3)n2)n1', '%Inh', 0),
  ('O=C(Nc1n[nH]c2nc(-c3nccs3)c(Br)cc12)C1CC1', '%Inh', 4);

Could you now look at the following compound, please?
Observed %Inh, TNNI3K, Cc1ccc(NC(=O)Nc2cc(C(C)(C)C)nn2-c2ccccc2)cc1 : 21
